Where do these numbers come from? They come from paper PMC8298633.

Would you kindly list P (A > B) for each of these compounds?
- assayed-system: P-glycoprotein (Homo sapiens)
- Sequence (P08183 whole entry): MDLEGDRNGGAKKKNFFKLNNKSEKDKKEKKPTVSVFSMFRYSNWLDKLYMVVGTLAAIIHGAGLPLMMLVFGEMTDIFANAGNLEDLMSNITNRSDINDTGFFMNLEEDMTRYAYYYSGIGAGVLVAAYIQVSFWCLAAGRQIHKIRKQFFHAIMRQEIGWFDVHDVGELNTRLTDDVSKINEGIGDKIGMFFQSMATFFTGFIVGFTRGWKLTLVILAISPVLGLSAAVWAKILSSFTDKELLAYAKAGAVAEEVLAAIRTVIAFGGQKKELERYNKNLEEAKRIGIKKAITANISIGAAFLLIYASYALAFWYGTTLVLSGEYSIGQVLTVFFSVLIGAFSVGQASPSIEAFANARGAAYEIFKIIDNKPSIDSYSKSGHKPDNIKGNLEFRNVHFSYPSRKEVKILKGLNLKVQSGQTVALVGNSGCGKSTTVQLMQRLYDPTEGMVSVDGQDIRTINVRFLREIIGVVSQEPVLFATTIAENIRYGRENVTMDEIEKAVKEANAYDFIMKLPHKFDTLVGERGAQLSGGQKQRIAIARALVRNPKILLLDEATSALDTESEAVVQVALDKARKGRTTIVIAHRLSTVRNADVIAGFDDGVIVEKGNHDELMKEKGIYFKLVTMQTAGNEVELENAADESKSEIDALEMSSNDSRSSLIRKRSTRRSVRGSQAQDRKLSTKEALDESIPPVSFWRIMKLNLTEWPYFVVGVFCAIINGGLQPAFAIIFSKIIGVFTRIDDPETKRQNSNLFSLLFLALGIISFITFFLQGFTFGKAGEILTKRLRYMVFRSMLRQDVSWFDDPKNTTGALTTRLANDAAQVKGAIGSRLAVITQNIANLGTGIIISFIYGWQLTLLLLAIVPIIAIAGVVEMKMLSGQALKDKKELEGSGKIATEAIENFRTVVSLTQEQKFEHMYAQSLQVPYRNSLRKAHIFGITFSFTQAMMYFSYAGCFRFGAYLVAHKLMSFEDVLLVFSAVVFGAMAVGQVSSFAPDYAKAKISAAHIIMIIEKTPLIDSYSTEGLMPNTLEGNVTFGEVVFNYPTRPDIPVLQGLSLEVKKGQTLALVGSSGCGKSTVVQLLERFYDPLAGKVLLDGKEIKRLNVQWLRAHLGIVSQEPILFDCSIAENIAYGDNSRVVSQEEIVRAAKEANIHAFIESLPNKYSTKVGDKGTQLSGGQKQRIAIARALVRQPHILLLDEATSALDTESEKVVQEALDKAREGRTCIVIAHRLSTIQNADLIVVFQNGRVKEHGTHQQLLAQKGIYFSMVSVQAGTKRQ
- assay-remarks: Bidirectional transwell substrate assay, MDCK cells expressing P-glycoprotein
- reported-conditions: P-glycoprotein MDCK cells, 10 µM cannabinoid, apical to basolateral

stdin: Query (compound): CCCCCc1cc(O)c2c(c1)OC(C)(C)[C@@H]1CCC(C)=C[C@@H]21 [Δ^9-THC, Δ^9-tetrahydrocannabinol, reference compound] ; field requested: P (A > B)
stdout: 9 ± 3 × 10^−5 cm/s

stdin: Query (compound): CCCCCc1cc(O)c(C/C=C(\C)CCC=C(C)C)c(O)c1C(=O)O [CBGA, cannabigerolic acid] ; field requested: P (A > B)
stdout: 5 ± 2 × 10^−5 cm/s

stdin: Query (compound): C=C(C)[C@@H]1CCC(C)=C[C@H]1c1c(O)cc(CCC)c(C(=O)O)c1O [CBDVA, cannabidivarinic acid] ; field requested: P (A > B)
stdout: 14 ± 4 × 10^−5 cm/s

stdin: Query (compound): C=C(C)[C@@H]1CCC(C)=C[C@H]1c1c(O)cc(CCCCC)c(C(=O)O)c1O [CBDA, cannabidiolic acid] ; field requested: P (A > B)
stdout: 24 ± 7 × 10^−5 cm/s

stdin: Query (compound): C=C(C)[C@@H]1CCC(C)=C[C@H]1c1c(O)cc(CCCCC)cc1O [CBD, cannabidiol] ; field requested: P (A > B)
stdout: 25 ± 7 × 10^−5 cm/s

stdin: Query (compound): C=C(C)[C@@H]1CCC(C)=C[C@H]1c1c(O)cc(CCC)cc1O [CBDV, cannabidivarin] ; field requested: P (A > B)
stdout: 30 ± 8 × 10^−5 cm/s

stdin: Query (compound): CCCCCc1cc(O)c(C/C=C(\C)CCC=C(C)C)c(O)c1 [CBG, cannabigerol] ; field requested: P (A > B)
stdout: 19 ± 5 × 10^−5 cm/s

stdin: Query (compound): CCCCCc1cc2c(c(O)c1C(=O)O)C1C=C(C)CCC1C(C)(C)O2 (centres unmarked) [Δ^9-THCA, Δ^9-tetrahydrocannabinolic acid] ; field requested: P (A > B)
stdout: 17 ± 5 × 10^−5 cm/s

###

Would you kindly list P (B > A) for each of these compounds?
- assayed-system: P-glycoprotein (Homo sapiens)
- assay-remarks: Bidirectional transwell substrate assay, MDCK cells expressing P-glycoprotein
- reported-conditions: P-glycoprotein MDCK cells, 10 µM cannabinoid, basolateral to apical

stdin: Query (compound): CCCCCc1cc(O)c(C/C=C(\C)CCC=C(C)C)c(O)c1 [CBG, cannabigerol] ; field requested: P (B > A)
stdout: 14 ± 2 × 10^−5 cm/s

stdin: Query (compound): CCCCCc1cc(O)c(C/C=C(\C)CCC=C(C)C)c(O)c1C(=O)O [CBGA, cannabigerolic acid] ; field requested: P (B > A)
stdout: 3 ± 1 × 10^−5 cm/s

stdin: Query (compound): C=C(C)[C@@H]1CCC(C)=C[C@H]1c1c(O)cc(CCC)c(C(=O)O)c1O [CBDVA, cannabidivarinic acid] ; field requested: P (B > A)
stdout: 22 ± 2 × 10^−5 cm/s

stdin: Query (compound): CCCCCc1cc(O)c2c(c1)OC(C)(C)[C@@H]1CCC(C)=C[C@@H]21 [Δ^9-THC, Δ^9-tetrahydrocannabinol, reference compound] ; field requested: P (B > A)
stdout: 4 ± 1 × 10^−5 cm/s

###

- assay-remarks: Pharmacokinetic study: plasma cannabinoids after single oral gavage of full-spectrum cannabis extract or individual cannabinoid
- reported-conditions: mouse plasma, single oral dose of extract
measure-name: Detection in plasma following oral administration of the full-spectrum extract

Previously resolved entries follow.
{"molecule": "C=C(C)[C@@H]1CCC(C)=C[C@H]1c1c(O)cc(CCCCC)c(C(=O)O)c1O [CBDA, cannabidiolic acid]", "result": "detected"}
{"molecule": "CCCCCc1cc(O)c2c(c1)OC(C)(C)c1ccc(C)cc1-2 [CBN, cannabinol]", "result": "not detected"}
{"molecule": "CCCCCc1cc(O)c(C/C=C(\\C)CCC=C(C)C)c(O)c1 [CBG, cannabigerol]", "result": "not detected"}
{"molecule": "C=C(C)[C@@H]1CCC(C)=C[C@H]1c1c(O)cc(CCCCC)cc1O [CBD, cannabidiol]", "result": "detected"}
{"molecule": "CCCCCc1cc(O)c2c(c1)OC(C)(C)[C@@H]1CCC(C)=C[C@@H]21 [Δ^9-THC, Δ^9-tetrahydrocannabinol, reference compound]", "result": "detected"}

stdin: Query (molecule): CCCCCc1cc2c(c(O)c1C(=O)O)C1C=C(C)CCC1C(C)(C)O2 (centres unmarked) [Δ^9-THCA, Δ^9-tetrahydrocannabinolic acid] ; field requested: Detection in plasma following oral administration of the full-spectrum extract
stdout: detected

stdin: Query (molecule): C=C(C)[C@@H]1CCC(C)=C[C@H]1c1c(O)cc(CCC)cc1O [CBDV, cannabidivarin] ; field requested: Detection in plasma following oral administration of the full-spectrum extract
stdout: not detected

stdin: Query (molecule): CCCCCc1cc(O)c2c(c1)OC(C)(CCC=C(C)C)C=C2 (centres unmarked) [CBC] ; field requested: Detection in plasma following oral administration of the full-spectrum extract
stdout: not detected

###

- assay-remarks: Pharmacokinetic study: plasma cannabinoids after single oral gavage of full-spectrum cannabis extract or individual cannabinoid
- reported-conditions: both, mouse, plasma, po, 25 mg/kg, Cmax, mouse plasma, oral, administered in full-spectrum extract; doses mg/kg: CBD 25, THC 15, THCA 50
measure-name: Cmax (ng/mL)
Answer with a number only, understood to be in ng/mL.

stdin: Query (compound): C=C(C)[C@@H]1CCC(C)=C[C@H]1c1c(O)cc(CCCCC)cc1O ; field requested: Cmax
stdout: 60

###

Would you kindly list efflux ratio at 240 min, 10 µM for each of these compounds?
- assay-remarks: Bidirectional transwell transport assay, wildtype MDCK cell monolayers
- reported-conditions: dog, MDCK
In your answer, state the number alone without any accompanying words.

stdin: Query (compound): C=C(C)[C@@H]1CCC(C)=C[C@H]1c1c(O)cc(CCCCC)cc1O ; field requested: efflux ratio at 240 min, 10 µM
stdout: 0.6

stdin: Query (compound): CCCCCc1cc(O)c(C/C=C(\C)CCC=C(C)C)c(O)c1 ; field requested: efflux ratio at 240 min, 10 µM
stdout: 0.8

stdin: Query (compound): C=C(C)[C@@H]1CCC(C)=C[C@H]1c1c(O)cc(CCCCC)c(C(=O)O)c1O ; field requested: efflux ratio at 240 min, 10 µM
stdout: 1.2

stdin: Query (compound): C=C(C)[C@@H]1CCC(C)=C[C@H]1c1c(O)cc(CCC)cc1O ; field requested: efflux ratio at 240 min, 10 µM
stdout: 1

###

Would you kindly list P (B > A) for each of these compounds?
- assayed-system: BCRP (Homo sapiens, UniProt Q9UNQ0)
- Sequence (Q9UNQ0 1-655): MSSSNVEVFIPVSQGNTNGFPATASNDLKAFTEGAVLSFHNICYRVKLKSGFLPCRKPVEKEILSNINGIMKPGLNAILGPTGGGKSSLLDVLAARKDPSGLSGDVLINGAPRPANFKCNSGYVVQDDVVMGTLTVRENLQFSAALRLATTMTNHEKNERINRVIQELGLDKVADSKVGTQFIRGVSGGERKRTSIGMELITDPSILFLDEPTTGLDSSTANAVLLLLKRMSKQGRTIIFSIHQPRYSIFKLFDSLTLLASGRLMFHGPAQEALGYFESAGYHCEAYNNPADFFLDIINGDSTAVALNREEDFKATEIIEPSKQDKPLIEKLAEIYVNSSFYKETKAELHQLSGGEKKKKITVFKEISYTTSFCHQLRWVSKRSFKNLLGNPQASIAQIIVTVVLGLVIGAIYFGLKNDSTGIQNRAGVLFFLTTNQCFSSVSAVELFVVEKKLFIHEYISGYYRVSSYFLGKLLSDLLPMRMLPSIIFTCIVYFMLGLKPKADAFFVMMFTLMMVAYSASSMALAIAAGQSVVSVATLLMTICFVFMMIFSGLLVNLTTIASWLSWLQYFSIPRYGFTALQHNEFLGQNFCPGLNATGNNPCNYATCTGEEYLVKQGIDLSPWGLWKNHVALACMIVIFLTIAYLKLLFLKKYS
- assay-remarks: Bidirectional transwell substrate assay, MDCK cells expressing BCRP (with or without elacridar)
- reported-conditions: BCRP MDCK cells, 10 µM cannabinoid, basolateral to apical

stdin: Query (compound): CCCCCc1cc(O)c(C/C=C(\C)CCC=C(C)C)c(O)c1C(=O)O ; field requested: P (B > A)
stdout: 5 ± 1 × 10^−5 cm/s

stdin: Query (compound): CCCCCc1cc(O)c2c(c1)OC(C)(C)[C@@H]1CCC(C)=C[C@@H]21 [Δ^9-THC, Δ^9-tetrahydrocannabinol, reference compound] ; field requested: P (B > A)
stdout: 74 ± 28 × 10^−5 cm/s

stdin: Query (compound): CCCCCc1cc(O)c(C/C=C(\C)CCC=C(C)C)c(O)c1 ; field requested: P (B > A)
stdout: 53 ± 10 × 10^−5 cm/s

stdin: Query (compound): C=C(C)[C@@H]1CCC(C)=C[C@H]1c1c(O)cc(CCCCC)cc1O ; field requested: P (B > A)
stdout: 86 ± 20 × 10^−5 cm/s
